The reported measurements were obtained from patent US20240309087A1.

- target of assay: T1, hCD112R mFC recombinant protein (human; murine, UniProt Q6DKI7 41-160)
- T1 construct: range 41-160; expressed in 293E cells; also called hCD112R ECD mFC; hCD112R-ECD-mFC; not shown: murine IgG2a Fc domain (MX2-mFc vector)
- T1 sequence (looked up): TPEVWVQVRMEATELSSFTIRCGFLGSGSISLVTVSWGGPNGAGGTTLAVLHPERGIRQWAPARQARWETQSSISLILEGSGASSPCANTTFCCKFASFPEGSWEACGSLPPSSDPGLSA
- method description: ELISA, coated hCD112R-ECD-mFC
measurement type: EC50 (ng/mL)
Give the value, in units of ng/mL, as a plain number.

Example entries and their recorded answers appear below.
INSERT INTO results (binder, result_units, quantitative_readout) VALUES
  ('Hu9 (antibody, IgG4, V domains shown, humanized IgG4; also called Hu-09) VH: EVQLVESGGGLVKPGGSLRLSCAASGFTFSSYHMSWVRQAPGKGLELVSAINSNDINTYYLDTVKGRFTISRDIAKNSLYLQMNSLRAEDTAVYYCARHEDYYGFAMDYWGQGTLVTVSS VL: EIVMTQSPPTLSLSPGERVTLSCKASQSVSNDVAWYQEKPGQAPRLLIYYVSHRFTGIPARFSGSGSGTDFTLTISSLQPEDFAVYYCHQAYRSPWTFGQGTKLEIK', 'ng/mL', 3.45),
  ('Hu27 (antibody, IgG4, V domains shown, humanized IgG4) VH: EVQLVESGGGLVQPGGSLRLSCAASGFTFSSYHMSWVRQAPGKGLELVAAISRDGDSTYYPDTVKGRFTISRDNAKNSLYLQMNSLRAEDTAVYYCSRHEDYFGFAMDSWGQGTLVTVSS VL: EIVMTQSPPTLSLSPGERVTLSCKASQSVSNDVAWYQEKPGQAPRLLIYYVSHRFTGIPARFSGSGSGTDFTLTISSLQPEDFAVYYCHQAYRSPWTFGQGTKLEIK', 'ng/mL', 4.42);

INPUT: What does the record list as EC50 for Hu60 (antibody, IgG4, V domains shown, humanized IgG4) VH: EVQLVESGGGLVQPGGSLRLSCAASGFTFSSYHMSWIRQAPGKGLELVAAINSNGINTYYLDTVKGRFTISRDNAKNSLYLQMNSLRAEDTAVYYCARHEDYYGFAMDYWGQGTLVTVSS VL: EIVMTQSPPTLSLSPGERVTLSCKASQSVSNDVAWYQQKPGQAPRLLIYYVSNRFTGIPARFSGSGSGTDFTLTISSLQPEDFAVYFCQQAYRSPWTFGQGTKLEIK ?
OUTPUT: 6.02
